- Test system: Hepatitis B virus
- Measurement notes: Compound concentration required to inhibit the viral cell proliferation by 50% against HBV
- Type: functional, organism-based
Exercise: for every item that follows, state its recorded pEC50.
Reminder that pEC50 means the negative base-10 logarithm of the concentration expressed in mol/L.

Recorded result, Nc1nc(=O)n([C@@H]2CC[C@H](CO)O2)cc1F , pEC50: 7.44

Reported pEC50 ( Nc1nc(=O)n([C@@H]2C=C[C@H](CO)O2)cc1F [ELVUCITABINE] ) = 8.10

Record summary for Nc1ccn([C@@H]2CS[C@H](CO)O2)c(=O)n1 [LAMIVUDINE] : reported pEC50 = 7.52
